FYI, the data here is from patent US20110046043A1.

Molecular target: T1, IZN17 (peptide 11, AcIKKEIEAIKKEQEAIKKKIEAIEKLLQLTVWGIKQLQARIL-NH2) (N-terminal acetyl (Ac); C-terminal amide (NH2))
T1 construct: also called peptide IZN17; 1ZN17
T1 chain: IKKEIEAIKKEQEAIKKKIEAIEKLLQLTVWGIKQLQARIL
Experiment: fluorescence polarization, direct saturation binding of fluorescein-labeled peptide 12 to IZN17, PBS, 25° C.
*1 amine or outer side, *2 acyl side, *3 side chain or, on linkers, in order; H or OH if unused. Suc = O=C(CCC(=O)[*:2])[*:1]
experimentalReadout: Kd

Entry Suc-MTWMEWDREINNYTC(fluorescein)-NH2 (also called fluorescent probe 12; fluorescein-labeled C-peptide derivative) [Fluorescein-labeled peptide 12 (suc-MTWMEWDREINNYTC^Flu)] ; Kd = 24 µM
